System: T-47D breast
Run Description: NCI tumour cell line growth inhibition, 48 h
Measured Metric: TGI (µM)
Hi! Could you send only the number? It should be in µM, unit omitted.

>  <Compound>
Clc1nc(Cl)c(CBr)c(Cl)n1

>  <Study System>
T-47D breast

>  <TGI (µM)>
36.1

$$$$

If you can, please state the reported TGI value of "NC1=Nc2cc(OCCCN3Cc4ccccc4C3)c(OCC3CC3)cc2C12CCCC2" .
4.54

If you can, please state the reported TGI value of "c1ccc(N=C2SC3=NCCN3C2=Nc2ccccc2)cc1" .
44.4

If you can, please state the reported TGI value of "Cc1cc(N(CCCl)CCCl)ccc1/C=N/NC(=O)Cc1cc(=O)oc2cc(O)ccc12" .
56.9

If you can, please state the reported TGI value of "COc1ccc2c(c1)/C(=C/c1cc(OC)c(OC)c(OC)c1)C(=O)N2C" .
6.45

If you can, please state the reported TGI value of COc1ccc2c(c1)C1(C(=O)N2)C(C#N)=C(c2ccccc2)Nc2c1c(-c1ccccc1)nn2-c1ccccc1 (centres undefined) .
12.5

If you can, please state the reported TGI value of "O=C(COc1cccc(/C=C2\CSc3ccccc3C2=O)c1)c1ccc(Cl)cc1" .
5.43

If you can, please state the reported TGI value of "O=C(Nc1cccc(-n2cc(-c3ccncc3)c(-c3ccc(O)c(Cl)c3)n2)c1)Nc1cccc(C(F)(F)F)c1" .
7.3

If you can, please state the reported TGI value of CCOC(=O)C(C(=O)OCC)=C1NC2(c3ccccc3Nc3ccc(C)cc32)C(C(=O)OC)S1 (centres undefined) .
67.2

If you can, please state the reported TGI value of "CCN(CC)C(=O)N1CN(c2ccccc2)C2(CCN(CCCSc3ccc(F)cc3)CC2)C1=O" .
47.1

Data provenance: PubChem BioAssay (NCI)
